- Experiment Notes: MMV: MTT Cytotoxicity Assay Day 7 pi of Assay #7 (compound washed out Day 1 pi), U87-CD4-CXCR4 cells, % cell death @ 5mM compound
- Assay type: toxicity, cell-based
- Test Context: human, u87-cd4-cxcr4, 5000 µM
So I've got a bunch of compounds here, and I need their % Cell Death values.
Give the value as a plain number.

Suppose we examine the compound `Oc1ccc2ccccc2c1CNc1nc2ccccc2[nH]1` ; what % Cell Death value has been reported?
-22

Then what about the compound COc1ccc(Br)cc1C1Nc2ccc3ccccc3c2C2=C1C(=O)CC(c1ccccc1)C2 (stereo not drawn) ?
-14

Then what about the compound `FC(F)(F)c1ccc(Nc2nnnc3ccccc23)cc1` ?
-10

Then what about the compound `c1ccc2c(NCCc3c[nH]c4ccccc34)c3ccccc3nc2c1` ?
-4

Then what about the compound `CCCCNc1nc(NC(C)(C)C)nc(NC(C)(C)C)n1` ?
18

Then what about the compound `Cc1[nH]c(-c2ccc(F)cc2)cc1C(=O)NC1CCN(Cc2ccccc2)CC1` ?
6

Then what about the compound COc1ccc(N2CCN(C(CNC(=O)C3CCCCC3)c3ccc4c(c3)OCO4)CC2)cc1 (stereo not drawn) ?
6

Then what about the compound `CCn1c(CN2CCN(Cc3ccccc3)CC2)nc2cc(NC(=O)c3cccs3)ccc21` ?
-27

Then what about the compound `Br.CCN(CC)S(=O)(=O)c1ccc(-c2csc(Nc3ccc(C)c(C)c3)n2)cc1` ?
-19

Then what about the compound `CCc1c(C)c(=N)c2ccccc2n1C.I` ?
-17

Then what about the compound `COc1ccc(-c2c(C)nn3c(N)c(C#N)cnc23)cc1OC` ?
89

Then what about the compound `Cc1ccc(Nc2nc(-c3ccccn3)cs2)cc1` ?
-17

Then what about the compound `CCOC(=O)c1cnc2ccc(OC)cc2c1Nc1ccc(N2CCN(C)CC2)cc1` ?
17

Then what about the compound `O=C(Nc1ccc(-c2nc3cc(NC(=O)c4ccc(Cl)cc4)ccc3[nH]2)cc1)c1ccc(Cl)cc1` ?
-23

Then what about the compound `COc1ccccc1CNC(=O)CCn1c(=O)[nH]c2ccsc2c1=O` ?
-19

Then what about the compound `Cc1cc(N2CCCC2)nc(Nc2ccc(NC(=O)CCc3ccccc3)cc2)n1` ?
-12

Then what about the compound COc1ccc(C(=O)NC(c2ccc(Cl)cc2Cl)c2cc(Cl)c3cccnc3c2O)cc1 (stereo not drawn) ?
18

Then what about the compound `COc1cc(OC)c(N(C)C(=O)c2cc3c(s2)-c2ccccc2S(=O)(=O)C3)cc1Cl` ?
-18

Then what about the compound `CN(C)c1ccc(N=Cc2ccc(N3CCOCC3)cc2)cc1` ?
97

Then what about the compound `CCCn1c(=N)c(C(=O)NC2CCCCC2)cc2c(=O)n3cccc(C)c3nc21` ?
-17

Then what about the compound OC1CCCCC1C1(NC(=S)Nc2ccccc2)CCCCC1 (stereo not drawn) ?
29

Then what about the compound `Cc1ccc(-c2cc3c(SCC(=O)Nc4cc(C(F)(F)F)ccc4Cl)nccn3n2)cc1` ?
-26

Then what about the compound `O=c1nc(C=Cc2ccc(Cl)cc2)oc2ccccc12` ?
-17

Then what about the compound `Cc1cc(NCCN2CCCCC2)c2ccc3ccccc3c2n1` ?
16

Then what about the compound CCC(c1ccccc1)c1nn2c(-c3cccs3)nnc2s1 (stereo not drawn) ?
28

Then what about the compound `COc1ccc(C=C2SC(=N)N(c3ccccc3OC)C2=O)cc1` ?
95

Then what about the compound `Cc1ccc(Nc2nc(NCCO)c3ccccc3n2)cc1C` ?
-22

Then what about the compound `COc1ccc(-c2nc3cc(Cc4ccc5[nH]c(-c6ccc(OC)cc6)nc5c4)ccc3[nH]2)cc1` ?
-21

Then what about the compound CCCN(CCC)CC(O)COc1ccccc1C(=O)Nc1ccccc1 (stereo not drawn) ?
14

Then what about the compound O=C(NCC(c1ccsc1)N1CCCCCC1)c1ccc(C(F)(F)F)cc1 (stereo not drawn) ?
-26

Then what about the compound `Cl.Oc1ccccc1CNCC12CC3CC(CC(C3)C1)C2` ?
-11

Then what about the compound `Oc1c(CN2CCN(c3ccccc3F)CC2)cc(Br)c2cccnc12` ?
51

Then what about the compound Cc1sc(NC(=O)c2ccccc2)c(C(c2cccs2)N2CCN(c3ccccc3)CC2)c1C (stereo not drawn) ?
4

====

- Experiment Notes: MMV: MTT Cytotoxicity Assay Day 7 pi of Assay #10 (NO washout), U87-CD4-CCR5 cells, % cell death @ 5mM compound
- Type: toxicity, cell-based
- Test Context: human, u87-cd4-ccr5, 5000 µM
Property Name: % Cell Death
Give the value as a plain number.

Suppose we examine the compound CC(C)c1ccc(CNCC(O)c2ccccc2)cc1.Cl (centres undefined) ; what % Cell Death value has been reported?
14

Then what about the compound `CC(=O)c1ccc(NC(=O)CSc2nc(-c3ccccc3Cl)ns2)cc1` ?
41

Then what about the compound `CCOc1c(Br)cc(C2C(C(=O)OC)=CN(C)C=C2C(=O)OC)cc1OC` ?
30

Then what about the compound `COc1ccc(CNC2CCN(c3ccc(NC(=O)c4cccc(Cl)c4)cc3)CC2)cc1OC` ?
11

====

- Experiment Notes: MMV: MTT Cytotoxicity Assay Day 7 pi of Assay #10 (NO washout), U87-CD4-CCR5 cells, % cell death @ 5mM compound
- Type: toxicity, cell-based
- Test Context: human, u87-cd4-ccr5, 5000 µM
# binarize % Cell Death: threshold 20 inclusive, high side class 1, low side class 0

Can `COc1cccc(C=Cc2nc(=O)c3ccccc3o2)c1OC` be said to have % Cell Death at or above 20?
class 1

Then what about the compound CN1C=C(c2ccc3ccccc3n2)C(c2c[nH]c3ccccc23)c2ccccc21 (stereo unspecified) ?
class 1

Then what about the compound Cc1ccnc(NC(c2cccc(OCc3ccccc3)c2)c2ccc3cccnc3c2O)c1 (stereo unspecified) ?
class 0

Then what about the compound `O=C(O)C(=O)O.Oc1ccccc1CN1CCN(C(c2ccccc2)c2ccccc2)CC1` ?
class 1

Then what about the compound `Nc1ccc(-c2nc3cc(Oc4ccc(Oc5ccc6[nH]c(-c7ccc(N)cc7)nc6c5)cc4)ccc3[nH]2)cc1` ?
class 1

Then what about the compound `COc1cc(C(=O)Nc2ccc(-c3nc4ccccc4[nH]3)cc2)cc(OC)c1OC` ?
class 1

Then what about the compound `CN(N=O)C1=C(NC2CCCCC2)C(=O)c2ccccc2C1=O` ?
class 1

Then what about the compound `Cc1cc(NCCN2CCCCC2)c2ccc3ccccc3c2n1` ?
class 1

Then what about the compound `COc1ccc(-c2nc(NC(=O)CS(=O)(=O)c3ccc(F)cc3)sc2C)cc1` ?
class 0

Then what about the compound `CCCc1cc(O)c2c3c(c(=O)oc2c1)CN(C)CC3` ?
class 1

Then what about the compound `COCCn1c(C)nc2ccccc2c1=O` ?
class 0

Then what about the compound `COc1cccc(Nc2nc(N)c3ccccc3n2)c1.Cl` ?
class 0

Then what about the compound `CCCn1c(=N)c(C(=O)NC2CCCCC2)cc2c(=O)n3cccc(C)c3nc21` ?
class 1

Then what about the compound `Cc1cccc(Nc2nc(N)c3ccccc3n2)c1.Cl` ?
class 1

Then what about the compound `COc1ccc(-c2cn3c(C(=O)Nc4ccccc4Cl)c(-c4ccccc4)c4c3n2CCCC4)cc1` ?
class 1

Then what about the compound `Cc1ccc(-c2cc3c(nn2)-c2ccccc2C3=O)cc1` ?
class 1

Then what about the compound OC1=C2C(=Nc3ccccc3SC2c2ccccc2)c2ccccc21 (stereo unspecified) ?
class 0

Then what about the compound COCCN(C(=O)Cc1cccs1)C(C(=O)NCc1ccc(OC)cc1)c1ccc(C(C)C)cc1 (stereo unspecified) ?
class 1

Then what about the compound OC(Cn1nnc2ccccc21)Cn1c2ccc(Br)cc2c2cc(Br)ccc21 (stereo unspecified) ?
class 1

Then what about the compound `COc1ccccc1NC1=C(N2CCCCC2)C(=O)c2ccccc2C1=O` ?
class 0

Then what about the compound `COc1ccc2sc(N(Cc3cccnc3)C(=O)c3ccc(C#N)cc3)nc2c1` ?
class 0

Then what about the compound `CCn1nc(-c2ccc(C(=O)OC)cc2)nc2c(=O)n(C)c(=O)nc1-2` ?
class 0

Then what about the compound COc1ccc(C2c3ccc4ccccc4c3Oc3ncn(CCCN(C)C)c(=N)c32)cc1 (stereo unspecified) ?
class 0

Then what about the compound `CCCCc1c(C)nc2c(OC)cccc2c1O` ?
class 1

Then what about the compound `COc1ccc(C(=O)Nc2ccc(Cl)cc2C(=O)Nc2ccncc2)cc1` ?
class 0

Then what about the compound `O=C(Nc1ccc(Cl)c(Cl)c1)Nc1ccc(Cl)c(Cl)c1` ?
class 1

Then what about the compound C=C(C)CCC(C)N1CCC(N2CCC(C(=O)NCCc3ccccc3)CC2)CC1 (stereo unspecified) ?
class 0

Then what about the compound CCOc1cc(Cl)c(C(C)NC(=O)c2ccccc2)cc1OCC (stereo unspecified) ?
class 0

Then what about the compound `FC(F)(F)c1cccc(Nc2nc3ccccc3nc2Nc2cccc(C(F)(F)F)c2)c1` ?
class 1

Then what about the compound OC(CNC1CCCC1)Cn1c2ccccc2c2ccccc21 (stereo unspecified) ?
class 0

Then what about the compound COC(=O)c1ccc(C2C3=C(O)CC(c4ccc(F)cc4)CC3=Nc3ccccc3N2C(=O)c2ccccc2)cc1 (stereo unspecified) ?
class 0

Then what about the compound COc1ccc(C2NCCc3c2[nH]c2ccccc32)cc1CN1CCN(c2ccc(F)cc2)CC1.Cl (stereo unspecified) ?
class 0

Then what about the compound `CCOC(=O)c1cn(CC)c2cc(N(C)CCc3ccc(OC)c(OC)c3)c(F)cc2c1=O` ?
class 1

Then what about the compound `Cc1nc2ccccc2c(O)c1CC=C(Cl)Cl` ?
class 1

Then what about the compound `C=CCc1c(C)nc2ccccc2c1O` ?
class 1

Then what about the compound CCCC(c1nnnn1C1CCCCC1)N1CCN(C(=O)c2ccco2)CC1.Cl (stereo unspecified) ?
class 0
